# tgt: T1, monkey CEA expressed on CHO cell surface (cynomolgus monkey)
# T1 construct: also called cynoCEA-CHO; monkey CEA proteins on the cell surface
# T1 chain: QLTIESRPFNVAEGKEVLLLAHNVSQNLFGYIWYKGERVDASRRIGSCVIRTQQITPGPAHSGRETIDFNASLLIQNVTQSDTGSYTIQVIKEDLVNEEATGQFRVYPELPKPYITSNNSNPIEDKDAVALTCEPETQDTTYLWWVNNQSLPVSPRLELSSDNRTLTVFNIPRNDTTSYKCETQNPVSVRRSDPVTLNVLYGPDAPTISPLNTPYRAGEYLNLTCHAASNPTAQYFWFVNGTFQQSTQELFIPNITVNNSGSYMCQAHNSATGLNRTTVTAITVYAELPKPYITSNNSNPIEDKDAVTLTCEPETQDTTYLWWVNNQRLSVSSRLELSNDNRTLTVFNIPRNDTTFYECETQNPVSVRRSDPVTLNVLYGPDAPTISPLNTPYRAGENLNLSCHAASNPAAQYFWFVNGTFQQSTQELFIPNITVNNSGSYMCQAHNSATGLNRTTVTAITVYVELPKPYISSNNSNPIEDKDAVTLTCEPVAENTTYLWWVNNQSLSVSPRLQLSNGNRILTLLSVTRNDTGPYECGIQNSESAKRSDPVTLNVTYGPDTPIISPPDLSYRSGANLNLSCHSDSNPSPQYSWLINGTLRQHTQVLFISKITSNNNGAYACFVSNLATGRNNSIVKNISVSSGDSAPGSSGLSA
# assay notes: FACS, cynoCEA-CHO cells
Lab note: anything with EC50 below 5 nM is marked MET; values at 5 nM or higher are marked NOT MET.

Lab note: EC50 threshold 5 nM. Does this binder come in strictly under it? Hu67-11 (antibody, human IgG1, kappa, V domains shown) VH: EVQLVQSGAEVKKPGESLKISCKGSGYSFTDYHMNWVKQMPGKGLEWMGDINPDIGGTSYNQNFKGKVTISVDKSISTAYLQWSSLKASDTAMYYCARWDFDSFANWGQGTLVTVSS VL: DIVMTQSPDSLAVSLGERATINCRASESVSIIGTNLIHWYQQKPGQPPKLLIYHASNLETGVPDRFSGSGSGTDFTLTISSLQAEDVAVYYCLQSRKIPYTFGGGTKVEIKR MET

Lab note: EC50 threshold 5 nM. Does this binder come in strictly under it? Hu67-7 (antibody, V domains shown) VH: EVQLVQSGAEVKKPGESLKISCKGSGYSFTDYHMNWVRQMPGKGLEWMGDINPDIGGTSYNQNFKGQVTISADKSISTAYLQWSSLKASDTAMYYCARWDFDSFANWGQGTLVTVSS VL: EIVMTQSPATLSVSPGERATLSCRASESVSIIGTNLIHWYQQKPGQAPRLLIYHASNLETGIPARFSGSGSGTEFTLTISSLQSEDFAVYYCLQSRKIPYTFGGGTKVEIKR NOT MET

Lab note: EC50 threshold 5 nM. Does this binder come in strictly under it? Hu67-10 (antibody, human IgG1, kappa, V domains shown) VH: EVQLVQSGAEVKKPGESLKISCKGSGYSFTDYHMNWVRQMPGKGLEWMGDINPDIGGTSYNQNFKGQVTISADKSISTAYLQWSSLKASDTAMYYCARWDFDSFANWGQGTLVTVSS VL: DIVMTQSPSSLSASVGDRVTITCRASESVSIIGTNLIHWYQQKPGKPPKLLIYHASNLETGVPSRFSGSGSGTDFTLTISSLQPEDFATYYCLQSRKIPYTFGGGTKVEIKR NOT MET

Lab note: EC50 threshold 5 nM. Does this binder come in strictly under it? Hu67-5 (antibody, human IgG1, kappa, V domains shown) VH: EVQLVQSGAEVKKPGASVKVSCKASGYTFTDYHMNWVRQAPGQRLEWMGDINPDIGGTSYNQNFKGRVTITRDTSASTAYMELSSLRSEDTAVYYCARWDFDSFANWGQGTLVTVSS VL: DIVMTQSPSSLSASVGDRVTITCRASESVSIIGTNLIHWYQQKPGKPPKLLIYHASNLETGVPSRFSGSGSGTDFTLTISSLQPEDFATYYCLQSRKIPYTFGGGTKVEIKR MET

Lab note: EC50 threshold 5 nM. Does this binder come in strictly under it? Hu63-6 (antibody, human IgG1, kappa, V domains shown) VH: EVQLVQSGAEVKKPGASVKVSCKASGYTFTDFYMNWVRQAPGQGLEWMGDIFPKNGNTDYNRKFKDRVTLTVDKSTSTVYMELSSLRSEDTAVYYCARSGYGNYVFDYWGQGTLVTVSS VL: DVQMTQSPSSLSASVGDRVTITCRTSQDINIYLNWYQQKPGGAVKLLIYYRSGLLSGVPSRFSGSGSGTDYTLTISSLQPEDFATYYCQQGNTLPPTFGGGTKVEIKR MET
